Origin of values: patent US9795567B2

experimental details: Plasma pharmacokinetics of sodium oxybate given orally (background and definition statements)
condition summary: human, oral

# compound, half-life
data = [
    ("O=C(O)CCCO [sodium oxybate, Sodium gamma-hydroxybutyrate]", "24 to 54 min"),
]

---

experimental details: Plasma pharmacokinetics of sodium oxybate given orally (background and definition statements)
condition summary: human, oral
property measured: Tmax

# compound, assay result
records = [
    ("O=C(O)CCCO [sodium oxybate, Sodium gamma-hydroxybutyrate]", "0.5 to 2.5 h"),
]
